# assay-overview: in vitro
# experimental-setup: human, Caco-2, pH 7.4
Rule: efflux ratio at 120 min, 2 μM of 50 or more gives Yes; anything lower gives No.

{"columns": ["compound", "category-label"],
 "data": [
  ["Nc1nc2c(sc(=O)n2CCN2CCN(c3ccncc3F)CC2)c2nc(-c3ccco3)nn12 [Compound 3]", "No"],
  ["Nc1nc2c(sc(=O)n2CCN2CCN(c3cc(C(=O)N4CC[S+]([O-])CC4)c(F)cc3F)CC2)c2nc(-c3ccco3)nn12 [Compound 117]", "No"],
  ["Nc1nc2c(sc(=O)n2CCN2CCN(c3ccc(CCC(=O)O)cc3F)CC2)c2nc(-c3ccco3)nn12 [Compound 40]", "No"],
  ["Nc1nc2c(sc(=O)n2CCN2CCN(c3ccc(N4CC[S+]([O-])CC4)cc3F)CC2)c2nc(-c3ccco3)nn12 [Compound 126]", "Yes"],
  ["Nc1nc2c(sc(=O)n2CCN2CCN(c3ccc(OCc4c[nH]nn4)cc3F)CC2)c2nc(-c3ccco3)nn12 [Compound 1]", "No"],
  ["Nc1nc2c(sc(=O)n2CCN2CCN(c3ccc(C(=O)O)cc3F)CC2)c2nc(-c3ccco3)nn12 [Compound 44]", "Yes"],
  ["C[S@@+]([O-])CCNC(=O)c1ccc(N2CCN(CCn3c(=O)sc4c3nc(N)n3nc(-c5ccco5)nc43)CC2)c(F)c1 [Compound 124]", "Yes"]
]}

---

IC50 for assorted compounds
# study-target: A2A receptor (Homo sapiens)
# Sequence (P29274 whole entry): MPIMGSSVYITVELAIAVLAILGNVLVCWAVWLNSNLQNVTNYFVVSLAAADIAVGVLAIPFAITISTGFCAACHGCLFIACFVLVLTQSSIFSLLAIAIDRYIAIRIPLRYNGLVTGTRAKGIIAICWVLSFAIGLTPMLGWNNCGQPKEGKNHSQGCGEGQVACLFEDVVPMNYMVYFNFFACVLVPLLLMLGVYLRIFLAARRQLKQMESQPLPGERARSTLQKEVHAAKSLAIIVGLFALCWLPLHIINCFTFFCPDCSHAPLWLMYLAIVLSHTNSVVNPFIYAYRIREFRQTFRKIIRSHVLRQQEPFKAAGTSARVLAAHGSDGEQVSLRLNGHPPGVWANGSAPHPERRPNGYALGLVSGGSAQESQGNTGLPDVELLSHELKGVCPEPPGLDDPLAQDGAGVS
# assay-overview: Inhibition of cAMP production in HEK cells
# Assay type: cell-based
# experimental-setup: IC50 (nM) (5 μM Adenosine as agonist, 2.0% HSA), HEK-293 cells with A2A receptor, 5 μM Adenosine as agonist, 2.0% HSA
readout-name: IC50 (nM)

{"columns": ["compound", "quantity-unit", "numeric-value"],
 "data": [
  ["CS(=N)(=O)c1ccc(N2CCN(CCn3c(=O)sc4c3nc(N)n3nc(-c5ccco5)nc43)CC2)c(F)c1 (stereo not drawn)", "nM", 146],
  ["C[S@@+]([O-])c1ccc(N2CCN(CCn3c(=O)sc4c3nc(N)n3nc(-c5ccco5)nc43)CC2)c(F)c1 (single isomer, unassigned)", "nM", 183],
  ["Nc1nc2c(sc(=O)n2CCN2CCN(c3ccc(S(=O)(=O)N4CCNCC4)cc3F)CC2)c2nc(-c3ccco3)nn12", "nM", 115]
]}

---

# study-target: A2A receptor (Homo sapiens)
# assay-overview: Inhibition of cAMP production in HEK cells
# Format: cell-based
# experimental-setup: IC50 (nM) (5 nM NECA as agonist, 2% HSA), HEK-293 cells with A2A receptor, 5 nM NECA as agonist, 2% HSA

{"columns": ["molecule", "quantity-unit", "IC50"],
 "data": [
  ["C[S+]([O-])c1ccc(N2CCN(CCn3c(=O)sc4c3nc(N)n3nc(-c5ccco5)nc43)CC2)cc1 (centres unmarked)", "nM", 52],
  ["CN(C)CCNC(=O)c1ccc(N2CCN(CCn3c(=O)sc4c3nc(N)n3nc(-c5ccco5)nc43)CC2)c(F)c1", "nM", 7],
  ["CC(Oc1ccc(N2CCN(CCn3c(=O)sc4c3nc(N)n3nc(-c5ccco5)nc43)CC2)c(F)c1)C(=O)O (centres unmarked)", "nM", 9],
  ["CNCCN(C)C(=O)COc1ccc(N2CCN(CCn3c(=O)sc4c3nc(N)n3nc(-c5ccco5)nc43)CC2)c(F)c1", "nM", 1],
  ["C[S@@+]([O-])CCOc1ccc(N2CCN(CCn3c(=O)sc4c3nc(N)n3nc(-c5ccco5)nc43)CC2)c(F)c1 (single isomer, unassigned)", "nM", 8],
  ["C[C@H](Oc1ccc(N2CCN(CCn3c(=O)sc4c3nc(N)n3nc(-c5ccco5)nc43)CC2)c(F)c1)C(=O)O (single isomer, unassigned)", "nM", 9],
  ["CC(C)(Oc1ccc(N2CCN(CCn3c(=O)sc4c3nc(N)n3nc(-c5ccco5)nc43)CC2)c(F)c1)C(=O)O", "nM", 15],
  ["Nc1nc2c(sc(=O)n2CCN2CCN(c3ccncn3)CC2)c2nc(-c3ccco3)nn12", "nM", 151],
  ["Nc1nc2c(sc(=O)n2CCN2CCN(c3ccc(OCC(=O)N4CCNCC4)cc3F)CC2)c2nc(-c3ccco3)nn12", "nM", 2],
  ["Nc1nc2c(sc(=O)n2CCN2CCN(c3ccc(OCc4nc[nH]n4)cc3F)CC2)c2nc(-c3ccco3)nn12", "nM", 16],
  ["Cn1cnc(COc2cc(N3CCN(CCn4c(=O)sc5c4nc(N)n4nc(-c6ccco6)nc54)CC3)c(F)cc2F)n1", "nM", 123],
  ["CC(C)[C@H](N)C(=O)NCCOc1ccc(N2CCN(CCn3c(=O)sc4c3nc(N)n3nc(-c5ccco5)nc43)CC2)c(F)c1", "nM", 3],
  ["N#CCOc1cc(N2CCN(CCn3c(=O)sc4c3nc(N)n3nc(-c5ccco5)nc43)CC2)c(F)cc1F", "nM", 20],
  ["NCCNC(=O)COc1ccc(N2CCN(CCn3c(=O)sc4c3nc(N)n3nc(-c5ccco5)nc43)CC2)c(F)c1", "nM", 1]
]}
